test system: body temperature; test: Hypothermia Test (effect on body temperature); format: in vivo, CF-1 male mice; conditions: either test: hypothermic or apomorphine antagonism
Structures can show the parent of a compound that is named as a salt.
Measurement name: active in either the hypothermic or the apomorphine antogonism test

molecule="Cl.NC1Cc2cccc3cc(Cl)cc(c23)C1 (centres unmarked)" reported_measurement=active
molecule="CNC1Cc2cccc3c(C(=O)c4ccccc4)ccc(c23)C1 (centres unmarked) [(20), methanesulfonate salt]" reported_measurement=active
molecule="Brc1ccc2c3c(cccc13)CC(N1CCCCC1)C2 (centres unmarked)" reported_measurement=active
molecule="CNC1Cc2cccc3c(OCc4ccccc4)ccc(c23)C1 (centres unmarked) [(41), p-toluenesulfonate salt monohydrate]" reported_measurement=active
molecule="CCCN(CCC)C1Cc2cccc3ccc(OC)c(c23)C1 (centres unmarked) [(25), hydrochloride]" reported_measurement=active
molecule="CNC1Cc2cccc3cccc(c23)C1 [U-64,273A]" reported_measurement=active
molecule="CN(C)C1Cc2cccc3cc(O)cc(c23)C1 (centres unmarked)" reported_measurement=active
molecule="CCCN(CCC)C1Cc2cccc3cc(OC(C)=O)cc(c23)C1 (centres unmarked)" reported_measurement=active
molecule="CCNC1Cc2cccc3cccc(c23)C1 [(57), hydrochloride]" reported_measurement=active
molecule="CCCN(CCC)C1Cc2cccc3cc(OC(=O)OCC)cc(c23)C1 (centres unmarked)" reported_measurement=active
molecule="CCCN(CCC)C1Cc2cccc3cc(O)cc(c23)C1 (single isomer, unassigned; (+)) [(33), hydrobromide]" reported_measurement=active
molecule="c1cc2c3c(cccc3c1)CC(N1CCC1)C2 [(54), succinate salt]" reported_measurement=active
molecule="COc1ccc2cccc3c2c1CC(N(C)C)C3 (centres unmarked) [(35), hydrochloride]" reported_measurement=active
molecule="CN(C)C1Cc2cccc3c(C(=O)c4ccccc4)ccc(c23)C1 (centres unmarked) [(39), maleate salt, hydrochloride]" reported_measurement=active
molecule="CCCN(CCC)C1Cc2cccc3ccc(O)c(c23)C1 (centres unmarked) [(28), hydrobromide]" reported_measurement=active
molecule=CN(C)C1(N2CCC2)Cc2cccc3cccc(c23)C1 reported_measurement=active
molecule="CN(C)C1Cc2cccc3c(C(=O)c4ccccc4)ccc(c23)C1 (centres unmarked) [(19), maleate salt]" reported_measurement=active
molecule="NC1Cc2cccc3c(Br)ccc(c23)C1 (centres unmarked) [(27), hydrochloride]" reported_measurement=active
molecule="CCCN(CCC)C1Cc2cccc3cccc(c23)C1 [(53), hydrochloride]" reported_measurement=active
molecule="CCCN(CCC)C1Cc2cccc3cc(O)cc(c23)C1.Cl (racemic)" reported_measurement=active

###

# ED50 per record follows
test system: Apomorphone-Induced Case Climbing; experiment: Apomorphine antagonism (Apomorphine gnawing test; apomorphine-induced cage climbing); format: in vivo, Mouse; settings: Mus musculus, read-out: Apomor. Antag. ED50
Measurement name: ED50 (mg/kg)

compound="Cc1ccc2c3c(cccc13)CC(N)C2 (stereo not drawn) [Example 38, part C, 6-methyl-2,3-dihydro-lH-phenalen-2-amine]" measurement_name=ED50 output_unit=mg/kg value_relation_sign== reported_measurement=35
compound="CCCN(CCC)C1Cc2cccc3c(C)ccc(c23)C1 (stereo not drawn) [Example 38, title compound]" measurement_name=ED50 output_unit=mg/kg value_relation_sign=> reported_measurement=50
compound="CCCN(CCC)C1Cc2cccc3c(SC)ccc(c23)C1 (stereo not drawn) [Example 40]" measurement_name=ED50 output_unit=mg/kg value_relation_sign== reported_measurement=12.5
compound="CNC1Cc2cccc3c(C)ccc(c23)C1 (stereo not drawn) [Example 39, part B]" measurement_name=ED50 output_unit=mg/kg value_relation_sign== reported_measurement=35
compound="CCCN(CCC)C1(C)Cc2cccc3cc(O)cc(c23)C1 (stereo not drawn) [Example 41]" measurement_name=ED50 output_unit=mg/kg value_relation_sign=> reported_measurement=50
compound="Cc1ccc2c3c(cccc13)CC(N(C)C)C2 (stereo not drawn) [Example 39, part C]" measurement_name=ED50 output_unit=mg/kg value_relation_sign== reported_measurement=21
